Ref: ChEMBL document CHEMBL1806467

System: MDA-MB-361
Assay: cells
Details: Homo sapiens, MDA-MB-361, 72 h
Quantity Kind: IC50 (nM)

Guide cases for IC50, answers given:
- Entry Smiles: "COc1nc(-c2ccc(NC(=O)Nc3ccc(C(=O)N4CCNC(C)(C)C4)cc3)cc2)nc(N2CCOCC2)n1"
  IC50 (nM): 30
- Entry Smiles: "CCn1nnc2c(N3CCOCC3)nc(-c3ccc(NC(=O)Nc4ccc(C(=O)N5CCN(C)CC5)cc4)cc3)nc21"
  IC50 (nM): 8

[P] CNCCN(C)C(=O)c1ccc(NC(=O)Nc2ccc(-c3nc(OC)nc(N4CCOCC4)n3)cc2)cc1
[Q] CC(C)Oc1nc(-c2ccc(NC(=O)Nc3ccc(C(=O)NCCN(C)C)cc3)cc2)nc(N2CCOCC2)n1
[R] COc1nc(-c2ccc(NC(=O)Nc3ccc(C(=O)N4CCN(C)CC4)cc3)cc2)nc(N2CCOCC2)n1
[S] O=C(Nc1ccc(C(=O)NCCN2CCCCC2)cc1)Nc1ccc(-c2nc(O[C@H]3CCOC3)nc(N3CCOCC3)n2)cc1
Please give the order of these compounds when sorted by IC50, largest value leading. Give the labels in the order specified.
P, R, Q, S
(P: 110 nM, R: 35 nM, Q: 11 nM, S: 5 nM)

[I] O=C(Nc1ccc(C(=O)NCCN2CCCC2)cc1)Nc1ccc(-c2nc(O[C@H]3CCOC3)nc(N3CCOCC3)n2)cc1
[II] COc1nc(-c2ccc(NC(=O)Nc3ccc(C(=O)N(C)CCN(C)C)cc3)cc2)nc(N2CCOCC2)n1
Could you tell me which of these two has the smaller IC50 figure? First: I Second: II Could you answer with the label of the item you picked?
I
